Please provide measured pEC50 for the entries that follow.
- System: HIV-1 (H9IIIB strain)
- Assay text: Cell-Based HIV Infection Assay Using a Reporter (MT4-GFP cells)
- Protocol conditions: Human immunodeficiency virus 1, inflection point (IP) of viral growth inhibition; MT4-GFP cells infected with HIV-1 H9IIIB; 50% normal human serum; mean of at least two independent experiments; read-out: Cell Based IP (50% NHS)
By convention, pEC50 is the negative base-10 log of a molar concentration.

What value of pEC50 on HIV-1 (H9IIIB strain) does N[C@H](C(=O)Nc1cccc(F)c1CCC1CNC2CCCS(=O)(=O)N1C2)[C@@H](c1ccc(Cl)cc1)c1ccc(C(F)(F)F)nc1 (some centres unmarked) [Example 89] have? 8.29

What value of pEC50 on HIV-1 (H9IIIB strain) does CC1(C)CC([C@H](c2ccc(Cl)cc2)[C@H](NC(=O)CN)C(=O)N[C@H]2CCC[C@@H]2CC[C@H]2CN[C@@H]3CCCS(=O)(=O)N2C3)CCO1 (some centres unmarked) [Example 232] have? 5.60

What value of pEC50 on HIV-1 (H9IIIB strain) does COc1ccc([C@H](c2ccc(Cl)cc2)[C@H](N)C(=O)Nc2cccc(F)c2CCC2CNC3CCCS(=O)(=O)N2C3)cn1 (some centres unmarked) [Example 45] have? 8.42

What value of pEC50 on HIV-1 (H9IIIB strain) does CCC(CC)[C@H](c1ccc(Cl)cc1)[C@H](NC(=O)OC)C(=O)Nc1cccc(F)c1CCC1CNC2CCCS(=O)(=O)N1C2 (some centres unmarked) [Example 71] have? 7.39

What value of pEC50 on HIV-1 (H9IIIB strain) does COC(=O)N[C@H](C(=O)Nc1cccc(F)c1CC[C@H]1CN[C@@H]2CCCS(=O)(=O)N1C2)C(c1ccc(F)cc1)[C@H]1C[C@@H](C)O[C@@H](C)C1 (some centres unmarked) [Example 83] have? 8.09

What value of pEC50 on HIV-1 (H9IIIB strain) does C[C@@H]1CC([C@H](c2ccc(Cl)cc2)[C@H](N)C(=O)N[C@H]2CCC[C@@H]2CC[C@H]2CN[C@@H]3CCCS(=O)(=O)N2C3)C[C@H](C)O1 (some centres unmarked) [Example 196] have? 6.92

What value of pEC50 on HIV-1 (H9IIIB strain) does COC[C@H]1CC[C@H]([C@H](c2ccc(Cl)cc2)[C@H](N)C(=O)Nc2cncc(F)c2CC[C@H]2CN[C@@H]3CCCS(=O)(=O)N2C3)CC1 [Example 254] have? 8.52

What value of pEC50 on HIV-1 (H9IIIB strain) does COC(=O)CCCN[C@H](C(=O)N[C@H]1CCC[C@@H]1CC[C@H]1CN[C@@H]2CCCS(=O)(=O)N1C2)[C@@H](c1ccc(Cl)cc1)C1CCOC(C)(C)C1 (some centres unmarked) [Example 229] have? 6.68

What value of pEC50 on HIV-1 (H9IIIB strain) does COC(=O)N[C@H](C(=O)Nc1cccc(F)c1CC[C@H]1CN[C@@H]2CCCS(=O)(=O)N1C2)[C@@H](c1ccc(Cl)cc1)[C@H]1CC[C@H](OC)CC1 [Example 187] have? 8.49

What value of pEC50 on HIV-1 (H9IIIB strain) does CC1CC[C@@H]2CN([C@@H](CCc3c(F)cccc3NC(=O)[C@@H](N)[C@@H](c3ccc(F)cc3)C3C[C@@H](C)O[C@@H](C)C3)CN2)S1(=O)=O (some centres unmarked) [Example 110] have? 7.26

What value of pEC50 on HIV-1 (H9IIIB strain) does COC(=O)N[C@H](C(=O)Nc1cccc(F)c1CC[C@H]1CN[C@@H]2CCCS(=O)(=O)N1C2)[C@]1(c2ccc(Cl)cc2)CC[C@H](OC)CC1 [Example 125] have? 7.15
